# Test system: LCLC-97TM1
# assay_remarks: relative viability (nuclei count vs DMSO), 5 days (fraction); higher = more cells survive
# condition_parameters: first compound 0.04 µM
Entries and their relative viability
measurement_kind: relative viability

>  <compound>
COc1cc(N2CCC(C(N)=O)CC2)ccc1Nc1nc(N)c(Cl)c(Nc2ccccc2S(=O)(=O)C(C)C)n1 [HG-5-88-01] + CC(C)C[C@H](NC(=O)[C@H](Cc1ccccc1)NC(=O)c1cnccn1)B(O)O [Bortezomib] (partner 0.002 µM)

>  <result>
1.05

$$$$
>  <compound>
COc1cc(N2CCC(C(N)=O)CC2)ccc1Nc1nc(N)c(Cl)c(Nc2ccccc2S(=O)(=O)C(C)C)n1 [HG-5-88-01] + O=C(CCCCCCC(=O)Nc1ccccc1)NO [Vorinostat] (partner 1 µM)

>  <result>
0.75

$$$$
>  <compound>
COc1cc(N2CCC(C(N)=O)CC2)ccc1Nc1nc(N)c(Cl)c(Nc2ccccc2S(=O)(=O)C(C)C)n1 [HG-5-88-01] + CC(=O)c1c(C)c2cnc(Nc3ccc(N4CCNCC4)cn3)nc2n(C2CCCC2)c1=O [Palbociclib] (partner 0.5 µM)

>  <result>
0.214

$$$$
>  <compound>
COc1cc(N2CCC(C(N)=O)CC2)ccc1Nc1nc(N)c(Cl)c(Nc2ccccc2S(=O)(=O)C(C)C)n1 [HG-5-88-01] + CC1(C)CCC(c2ccc(Cl)cc2)=C(CN2CCN(c3ccc(C(=O)NS(=O)(=O)c4ccc(N[C@H](CCN5CCOCC5)CSc5ccccc5)c(S(=O)(=O)C(F)(F)F)c4)cc3)CC2)C1 [Navitoclax] (partner 0.5 µM)

>  <result>
0.374

$$$$

----------
# System: SK-MES-1
# assay_remarks: relative viability (nuclei count vs DMSO), 5 days (fraction); higher = more cells survive
# condition_parameters: first compound 1.265 µM

>  <molecule>
COc1cc(N2CCC(C(N)=O)CC2)ccc1Nc1nc(N)c(Cl)c(Nc2ccccc2S(=O)(=O)C(C)C)n1 [HG-5-88-01] + COc1cc2c(Oc3ccc(NC(=O)C4(C(=O)Nc5ccc(F)cc5)CC4)cc3F)ccnc2cc1OCCCN1CCOCC1 [Foretinib] (partner 0.25 µM)

>  <relative viability>
0.684

$$$$
>  <molecule>
Clc1ccc(Nc2nnc(Cc3ccncc3)c3ccccc23)cc1 [Vatalanib] + Cc1nc(Nc2ncc(C(=O)Nc3c(C)cccc3Cl)s2)cc(N2CCN(CCO)CC2)n1 [Dasatinib] (partner 0.075 µM)

>  <relative viability>
0.348

$$$$
>  <molecule>
COc1cc(N2CCC(C(N)=O)CC2)ccc1Nc1nc(N)c(Cl)c(Nc2ccccc2S(=O)(=O)C(C)C)n1 [HG-5-88-01] + Nc1ncn([C@H]2C[C@H](O)[C@@H](CO)O2)c(=O)n1 [Decitabine] (partner 2 µM)

>  <relative viability>
0.459

$$$$
>  <molecule>
Clc1ccc(Nc2nnc(Cc3ccncc3)c3ccccc23)cc1 [Vatalanib] + CS(=O)(=O)CCNCc1ccc(-c2ccc3ncnc(Nc4ccc(OCc5cccc(F)c5)c(Cl)c4)c3c2)o1 [Lapatinib] (partner 2 µM)

>  <relative viability>
0.462

$$$$
>  <molecule>
COc1cc(N2CCC(C(N)=O)CC2)ccc1Nc1nc(N)c(Cl)c(Nc2ccccc2S(=O)(=O)C(C)C)n1 [HG-5-88-01] + CC(=O)c1c(C)c2cnc(Nc3ccc(N4CCNCC4)cn3)nc2n(C2CCCC2)c1=O [Palbociclib] (partner 0.5 µM)

>  <relative viability>
0.304

$$$$
>  <molecule>
Clc1ccc(Nc2nnc(Cc3ccncc3)c3ccccc23)cc1 [Vatalanib] + COc1cc2c(Oc3ccc(NC(=O)C4(C(=O)Nc5ccc(F)cc5)CC4)cc3F)ccnc2cc1OCCCN1CCOCC1 [Foretinib] (partner 0.25 µM)

>  <relative viability>
0.881

$$$$
>  <molecule>
COc1cc(N2CCC(C(N)=O)CC2)ccc1Nc1nc(N)c(Cl)c(Nc2ccccc2S(=O)(=O)C(C)C)n1 [HG-5-88-01] + N=C(N)NC(=N)NCCc1ccccc1 [Phenformin] (partner 250 µM)

>  <relative viability>
0.602

$$$$
